biological target: … (SEQ ID NO: 1)-HLA-A*02 complex (human); experiment: SPR (BIAcore) or BLI (Octet) per Example 3, immobilised biotinylated pHLA, 25 C
value_kind: t1/2 (h)
The figure you give is taken to be in h; do not add the unit.

ImmTAC molecule a79b76 (TCR-anti-CD3 fusion) (TCR, part only; not given: anti-CD3 scFv, linker, constant regions, not shown: a dimerising Fc or GST) TCR alpha, part: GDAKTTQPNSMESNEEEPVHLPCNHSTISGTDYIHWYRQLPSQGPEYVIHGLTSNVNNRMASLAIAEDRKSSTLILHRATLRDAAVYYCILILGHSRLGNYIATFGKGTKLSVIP TCR beta, part: DGGITQSPKYLFRKEGQNVTLSCEQNLNHDAMYWYRQDPGQGLRLIYYSQIMGDEQKGDIAEGYSVSREKKESFPLTVTSAQKNPTAFYLCASSWWTGGSSPIRFGPGTRLTVT ... 58.3

Continue with the next binder.
Problem: Field request: t1/2 | item: ImmTAC molecule a79b63 (TCR-anti-CD3 fusion) (TCR, part only; not given: anti-CD3 scFv, linker, constant regions, not shown: a dimerising Fc or GST) TCR alpha, part: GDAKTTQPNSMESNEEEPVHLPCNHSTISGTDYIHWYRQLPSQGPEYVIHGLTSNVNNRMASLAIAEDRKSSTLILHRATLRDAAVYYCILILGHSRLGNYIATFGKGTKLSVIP TCR beta, part: DGGITQSPKYLFRKEGQNVTLSCEQNLNHDAMYWYRQDPGQGLRLIYYSQIVGDEQKGDIAEGYSVSREKKESFPLTVTSAQKNPTAFYLCASSWWTGGSAPIRFGPGTRLTVT
Solution: 10.8

These data points were gathered from patent US20230416335A1.
